# experimental.target: T1, LNX2_2, Q8N448
# T1 sequence (Q8N448 334-432, limits assumed, looked up): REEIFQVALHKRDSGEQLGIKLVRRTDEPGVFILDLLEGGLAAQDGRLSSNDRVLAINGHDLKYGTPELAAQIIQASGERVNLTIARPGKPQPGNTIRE
# test.name: holdup assay
# Design: key: below the threshold = too weak to quantify, mostly under pKd 3.1 to 4
# study.conditions: plain residues with an end cap or a label only (N-terminal biotin on a linker: ttds)
property.measured: pKd

binder | obs.value
PFRSRSPSEV [GPR6, P46095] | below the threshold
FVETQHQTQV [FAT3, Q8TDW7] | 3.75
PSRDRKETSI [RALBP1, Q15311] | below the threshold
KQVVPFSSSV [GDA, Q9Y2T3] | 3.65
SRSRRRETAL [HPV33-E6, P06427] | below the threshold
QRPYRRESEI [KCNJ12, Q14500] | below the threshold
DLDEEEDTHL [PODXL, O00592] | 3.48
SSIDLWETAL [SLC15A5, A6NIM6] | below the threshold
